- TESTED_TARGET: T1, human GITR with mFc tag (huGITR-mFc) (human)
- T1 chain: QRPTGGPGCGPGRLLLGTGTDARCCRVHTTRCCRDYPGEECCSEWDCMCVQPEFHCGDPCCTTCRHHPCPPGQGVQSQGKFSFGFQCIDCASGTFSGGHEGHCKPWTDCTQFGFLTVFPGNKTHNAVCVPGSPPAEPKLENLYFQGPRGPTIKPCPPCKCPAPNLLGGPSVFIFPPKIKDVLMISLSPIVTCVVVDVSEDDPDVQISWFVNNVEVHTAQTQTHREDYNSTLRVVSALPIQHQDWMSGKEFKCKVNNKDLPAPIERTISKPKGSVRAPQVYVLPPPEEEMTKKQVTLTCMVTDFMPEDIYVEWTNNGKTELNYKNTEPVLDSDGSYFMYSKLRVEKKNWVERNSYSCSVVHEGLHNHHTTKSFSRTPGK
- ASSAY_EXPLANATION: ELISA, blocking of GITRL-His binding to coated GITR-Fc
pIC50: −log10 of the molar value.

BINDER: mouse monoclonal antibody 16G9 (antibody, V domains shown, Mouse antibody from a hybridoma) VH: QVQLQQSGAELAKPGASVKMSCKASGYTFTTYWIHWIKQRPGQGLEWIGYINPSTGYTDYNQNFKDKATLTADQYSSTAYMQLSSLTFEDSAVYYCANYYGSTPYYWGRGTTLTVSS VL: QIVLTQSPAIMSASPGEKVTMTCSASSSVTYVHWYQQKSGASPERWIFDASKLASGVPARFSGSGSGTSYSLTISSMETEDAATYYCQQWSSNPLTFGAGTKLELK
pIC50: 7.99
